These entries and their values trace back to patent US20200216522A1.

Record form. Attribute: kon. Fill in for each entry.
target: T1, full-length human Tau (Tau441; 2N4R), recombinant (human, UniProt P10636 1-758); assay: SPR Biacore
T1 construct: made in E. coli, His6-Smt3 tag removed; biotinylated through amines for Octet and phage work; also called r-Tau; recombinant Tau
T1 sequence (P10636 other isoform, or with tags, fused parts or gaps limits assumed): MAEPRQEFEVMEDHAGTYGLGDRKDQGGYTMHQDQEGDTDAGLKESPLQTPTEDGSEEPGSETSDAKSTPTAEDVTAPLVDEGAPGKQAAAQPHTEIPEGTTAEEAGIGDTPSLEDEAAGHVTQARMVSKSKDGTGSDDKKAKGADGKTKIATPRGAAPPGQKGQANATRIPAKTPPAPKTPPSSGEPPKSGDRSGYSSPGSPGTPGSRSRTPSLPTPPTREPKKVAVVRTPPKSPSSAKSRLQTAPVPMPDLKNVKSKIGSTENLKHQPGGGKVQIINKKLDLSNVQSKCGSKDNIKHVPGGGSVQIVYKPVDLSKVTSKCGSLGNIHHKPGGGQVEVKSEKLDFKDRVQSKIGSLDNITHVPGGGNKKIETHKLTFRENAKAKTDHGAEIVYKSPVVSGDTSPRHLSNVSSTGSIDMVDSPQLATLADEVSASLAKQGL
Numbers only, in M⁻¹ s⁻¹.

Illustrative cases are given below, each with its answer.
INSERT INTO assay_data (binder, result_number) VALUES
  ('Clone with L1_3 and H1_1 (antibody, V domains shown, IgG based on hu1C7.v2) VH: EVQLLESGGGLVQPGGSLRLSCAASGFKFSRVGVSWVRQAPGKGLEWVASISGDGGSYIHYADSVKGRFTISRDNSKNTLYLQMNSLRAEDTAVYYCARLPYWGQGTLVTVSS VL: DIVMTQSPDSLAVSLGERATINCKSSQSLHRSGTQKDYLVWYQQKPGQPPKLLIYWASTRESGVPDRFSGSGSGTDFTLTISSLQAEDVAVYYCQQYNSYPLTFGQGTKVEIK', '1.64e+06'),
  ('Clone with H1_4 (antibody, V domains shown, IgG based on hu1C7.v2) VH: EVQLLESGGGLVQPGGSLRLSCAASGFRFSGPGMSWVRQAPGKGLEWVASISGDGGSYIHYADSVKGRFTISRDNSKNTLYLQMNSLRAEDTAVYYCARLPYWGQGTLVTVSS VL: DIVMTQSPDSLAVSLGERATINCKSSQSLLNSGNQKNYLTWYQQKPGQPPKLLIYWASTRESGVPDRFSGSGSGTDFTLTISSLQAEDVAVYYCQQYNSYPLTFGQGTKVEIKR', '1.32e+06'),
  ('Clone with L1_3 (antibody, V domains shown, IgG based on hu1C7.v2) VH: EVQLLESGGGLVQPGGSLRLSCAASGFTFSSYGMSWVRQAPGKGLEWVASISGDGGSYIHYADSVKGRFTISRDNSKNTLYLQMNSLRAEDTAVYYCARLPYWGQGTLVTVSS VL: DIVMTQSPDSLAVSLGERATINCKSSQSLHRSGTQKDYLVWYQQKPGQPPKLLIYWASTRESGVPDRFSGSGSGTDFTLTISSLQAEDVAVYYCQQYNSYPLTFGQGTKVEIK', '2.15e+06');

Please look at the items below and tell me kon for each one, in order.
1. hu1C7.v2 (S49A) (antibody, V domains shown) VH: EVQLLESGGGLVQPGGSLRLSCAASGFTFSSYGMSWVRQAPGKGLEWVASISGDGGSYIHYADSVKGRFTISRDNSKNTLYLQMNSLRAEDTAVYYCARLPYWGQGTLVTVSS VL: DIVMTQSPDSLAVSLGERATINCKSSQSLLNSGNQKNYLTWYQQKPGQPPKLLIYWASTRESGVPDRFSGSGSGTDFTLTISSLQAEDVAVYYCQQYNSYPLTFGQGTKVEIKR
2. Clone with H1_5 (antibody, V domains shown) VH: EVQLLESGGGLVQPGGSLRLSCAASVIKWRIYGMSWVRQAPGKGLEWVASISGDGGSYIHYADSVKGRFTISRDNSKNTLYLQMNSLRAEDTAVYYCARLPYWGQGTLVTVSS VL: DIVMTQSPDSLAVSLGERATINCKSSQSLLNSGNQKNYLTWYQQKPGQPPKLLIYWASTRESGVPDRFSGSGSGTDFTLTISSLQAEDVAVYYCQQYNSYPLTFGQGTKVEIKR

Result string:
760000
1.34e+06
